- Read-out: Plasminogen activator inhibitor-1 (PAI1), SERPINE1 (gene 5054)
- Test Description: BSK_BE3C_PAI1: BioMAP Diversity Plus: BE3C Assay for Plasminogen activator inhibitor-1 (PAI1) Biomarker Activity (AID 2283037)
- Test Context: primary human bronchial epithelial cells; actives raise or lower the signal
Active and inactive are the calls of the source. Rule for the calls: active = hit-call score of the fitted dose curve at least 0.9, where 1 is the maximum; inactive = score below 0.9.
Result category, one only: active, inactive

A selection of reference data follows.
| Compound | Classification |
| --- | --- |
| O=C(O)c1cccnc1 | inactive |
| CC(=O)OC1CC(C)OC(C)O1 (centres undefined) | inactive |
| CCOCCOCCO | inactive |

# lookup: test call for O=NO
inactive

Next: CC1(C)C(=O)NC(=O)N1CO
inactive

Lookup CCCCc1nc2cccnc2n1Cc1ccc(-c2ccccc2-c2nnn[nH]2)cc1
inactive

Same again, this time with OCC(O)CO
inactive

Thanks! And CN(C)CCCN1c2ccccc2Sc2ccc(Cl)cc21 ?
active

Try this compound too: C/C=C/c1ccc(OC)cc1
inactive

Can you check CC(COCC(C)OC(=O)c1ccccc1)OC(=O)c1ccccc1 (centres undefined) next?
inactive

Next compound: N[C@@H](Cc1c[nH]c2ccccc12)C(=O)O
inactive

How about this compound: CCCCC(CC)COP(=O)(OCC(CC)CCCC)OCC(CC)CCCC (centres undefined)
inactive

Okay, and Cc1cc(SC2=C(O)C[C@@](CCc3ccc(N)cc3)(C(C)C)OC2=O)c(C(C)(C)C)cc1CO ?
inactive

Okay, and CC(C)c1cccc(C(C)C)c1 ?
inactive
